As shown below, each of these compounds has a reported pIC50 value.
target.desc: Angiopoietin-1 receptor (Homo sapiens, UniProt Q02763)
Sequence (Q02763 whole entry): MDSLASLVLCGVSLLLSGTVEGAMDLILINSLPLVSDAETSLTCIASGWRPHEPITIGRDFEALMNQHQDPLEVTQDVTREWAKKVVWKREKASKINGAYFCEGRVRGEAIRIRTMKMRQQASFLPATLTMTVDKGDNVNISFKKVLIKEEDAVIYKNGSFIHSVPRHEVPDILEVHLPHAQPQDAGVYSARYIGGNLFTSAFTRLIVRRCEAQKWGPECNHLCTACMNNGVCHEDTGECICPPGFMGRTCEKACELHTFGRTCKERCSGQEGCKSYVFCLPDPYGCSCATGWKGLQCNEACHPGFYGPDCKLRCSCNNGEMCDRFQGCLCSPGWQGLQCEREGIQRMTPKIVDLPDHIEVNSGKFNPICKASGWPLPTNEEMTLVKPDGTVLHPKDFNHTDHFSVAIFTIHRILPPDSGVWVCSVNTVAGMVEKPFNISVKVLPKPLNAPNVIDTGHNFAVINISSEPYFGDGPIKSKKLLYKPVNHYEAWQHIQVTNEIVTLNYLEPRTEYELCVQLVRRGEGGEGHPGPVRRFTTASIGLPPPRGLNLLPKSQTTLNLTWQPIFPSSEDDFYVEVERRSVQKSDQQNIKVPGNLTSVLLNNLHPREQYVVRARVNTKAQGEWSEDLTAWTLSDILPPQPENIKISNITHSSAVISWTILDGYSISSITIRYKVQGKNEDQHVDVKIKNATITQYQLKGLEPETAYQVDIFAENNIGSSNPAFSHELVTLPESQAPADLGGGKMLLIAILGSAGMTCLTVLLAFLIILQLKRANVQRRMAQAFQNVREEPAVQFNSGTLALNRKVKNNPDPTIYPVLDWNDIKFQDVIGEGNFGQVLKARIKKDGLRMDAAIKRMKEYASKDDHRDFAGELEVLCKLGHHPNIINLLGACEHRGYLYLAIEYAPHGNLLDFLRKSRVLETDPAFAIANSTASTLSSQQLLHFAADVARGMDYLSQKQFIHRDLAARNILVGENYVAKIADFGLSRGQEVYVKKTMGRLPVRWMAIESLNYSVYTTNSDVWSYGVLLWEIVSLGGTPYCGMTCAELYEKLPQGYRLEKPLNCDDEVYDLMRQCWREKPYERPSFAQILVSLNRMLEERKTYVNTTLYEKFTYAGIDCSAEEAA
measurement.protocol: Inhibition of recombinant TIE2
Schema: pIC50 number; meaning minus log10 of the concentration expressed in molar units.

COc1cc(O)c2c(c1)C(=O)C1=C(C2=O)[C@H](O)[C@@H](O)[C@@](C)(O)[C@@H]1O; 4.58
COc1cc2c(c(O)c1-c1c(OC)cc(O)c3c1C(=O)C1=C(C3=O)[C@H](O)[C@@H](O)[C@@](C)(O)[C@@H]1O)C(=O)c1cc(O)c(C)cc1C2=O (single isomer, unassigned; atropisomer); 5.27
COc1cc(O)c2c(c1)C(=O)c1cc(C)c(O)cc1C2=O; 5.17

# ---- query compound ----
What does the record list as pIC50 for "COc1cc(O)c2c(c1)C(=O)c1cc(C)c(O)c(O)c1C2=O" ?
4.82

###

Test system: L5178Y
measurement.protocol: Cytotoxicity against mouse L5178Y cells at 10 ug/mL by MTT assay
Format: functional
Below, each of the compounds is paired with its reported Activity value.
Answer in %, number only, no unit symbol.

Here's what some known entries look like.
COc1cc(O)c2c(c1)C(=O)C1=C(C2=O)[C@H](O)[C@@H](O)[C@@](C)(O)[C@@H]1O; 1.5
COc1cc(O)c2c(c1)[C@H](O)[C@@H]1[C@H](C[C@@H](O)[C@@](C)(O)[C@@H]1O)C2=O; 51.4
COc1cc(O)c2c(c1-c1c(OC)cc(O)c3c1C(=O)C1=C(C3=O)[C@@H](O)[C@H](O)[C@](C)(O)[C@H]1O)C(=O)C1=C(C2=O)[C@H](O)[C@@H](O)[C@@](C)(O)[C@@H]1O (stereo in doubt; 7); 64.8
COc1cc(O)c2c(c1)C(=O)[C@H]1C[C@](C)(O)[C@H](O)C[C@@H]1[C@H]2O; 20.1

# ---- query compound ----
// map COc1cc(O)c2c(c1-c1c(OC)cc(O)c3c1C(=O)C1=C(C3=O)[C@@H](O)[C@H](O)[C@](C)(O)[C@H]1O)C(=O)C1=C(C2=O)[C@H](O)[C@@H](O)[C@@](C)(O)[C@@H]1O (stereo in doubt; 6) to recorded Activity (system: L5178Y)
92.1

###

Below, each of the molecules is paired with its reported IC50 value.
target.desc: UniProt P08069
Sequence (P08069 31-736 limits assumed): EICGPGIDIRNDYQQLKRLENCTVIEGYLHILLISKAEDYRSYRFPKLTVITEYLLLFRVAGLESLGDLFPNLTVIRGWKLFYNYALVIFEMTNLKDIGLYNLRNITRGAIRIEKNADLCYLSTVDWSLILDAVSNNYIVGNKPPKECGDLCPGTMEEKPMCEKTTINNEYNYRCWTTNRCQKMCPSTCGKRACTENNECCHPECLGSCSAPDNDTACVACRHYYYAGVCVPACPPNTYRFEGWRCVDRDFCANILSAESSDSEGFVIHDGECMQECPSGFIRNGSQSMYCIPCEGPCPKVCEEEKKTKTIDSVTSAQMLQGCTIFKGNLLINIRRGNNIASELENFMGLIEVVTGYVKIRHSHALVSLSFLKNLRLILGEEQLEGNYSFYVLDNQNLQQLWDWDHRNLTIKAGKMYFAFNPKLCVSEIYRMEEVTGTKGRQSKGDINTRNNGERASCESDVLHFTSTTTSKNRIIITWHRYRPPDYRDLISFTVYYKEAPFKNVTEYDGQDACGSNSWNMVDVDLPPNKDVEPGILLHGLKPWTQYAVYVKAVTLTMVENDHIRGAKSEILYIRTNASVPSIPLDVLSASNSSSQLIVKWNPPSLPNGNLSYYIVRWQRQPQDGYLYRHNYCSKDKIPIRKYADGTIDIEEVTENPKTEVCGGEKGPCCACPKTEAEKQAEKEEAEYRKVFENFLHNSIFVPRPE
Sequence (P08069 741-1367 limits assumed): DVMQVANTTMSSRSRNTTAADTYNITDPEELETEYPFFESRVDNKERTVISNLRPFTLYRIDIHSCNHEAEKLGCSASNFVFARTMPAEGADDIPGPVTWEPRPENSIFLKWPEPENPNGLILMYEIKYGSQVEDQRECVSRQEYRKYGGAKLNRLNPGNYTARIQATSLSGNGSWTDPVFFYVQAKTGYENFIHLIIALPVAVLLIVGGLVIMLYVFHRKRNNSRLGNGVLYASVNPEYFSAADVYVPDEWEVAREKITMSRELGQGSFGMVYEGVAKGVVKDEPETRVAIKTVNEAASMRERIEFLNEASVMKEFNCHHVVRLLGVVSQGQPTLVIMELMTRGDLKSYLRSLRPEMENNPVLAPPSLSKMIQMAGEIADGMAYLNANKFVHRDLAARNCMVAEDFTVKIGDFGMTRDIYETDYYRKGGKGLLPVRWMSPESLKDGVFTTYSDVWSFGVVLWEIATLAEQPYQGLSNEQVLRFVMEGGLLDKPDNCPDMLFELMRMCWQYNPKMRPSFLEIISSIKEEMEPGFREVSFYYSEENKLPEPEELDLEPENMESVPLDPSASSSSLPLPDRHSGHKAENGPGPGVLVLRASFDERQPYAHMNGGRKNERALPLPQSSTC
measurement.protocol: Inhibition of recombinant IGF1R
The number alone won't do; follow it with the unit.

Examples with answers:
COc1cc(O)c2c(c1)C(=O)c1cc(C)c(O)c(O)c1C2=O; 9.33 µM
COc1cc2c(c(O)c1-c1c(OC)cc(O)c3c1C(=O)C1=C(C3=O)[C@H](O)[C@@H](O)[C@@](C)(O)[C@@H]1O)C(=O)c1cc(O)c(C)cc1C2=O (single isomer, unassigned; atropisomer) [ALTERPORRIOL G/H]; 3.07 µM

Kindly review the next molecule as well.
Look at this molecule and give its reported IC50. COc1cc(O)c2c(c1)C(=O)C1=C(C2=O)[C@H](O)[C@@H](O)[C@@](C)(O)[C@@H]1O [ALTERSOLANOL A]
10.4 µM

###

target.desc: NUAK family SNF1-like kinase 1 (Homo sapiens)
Sequence (O60285 whole entry): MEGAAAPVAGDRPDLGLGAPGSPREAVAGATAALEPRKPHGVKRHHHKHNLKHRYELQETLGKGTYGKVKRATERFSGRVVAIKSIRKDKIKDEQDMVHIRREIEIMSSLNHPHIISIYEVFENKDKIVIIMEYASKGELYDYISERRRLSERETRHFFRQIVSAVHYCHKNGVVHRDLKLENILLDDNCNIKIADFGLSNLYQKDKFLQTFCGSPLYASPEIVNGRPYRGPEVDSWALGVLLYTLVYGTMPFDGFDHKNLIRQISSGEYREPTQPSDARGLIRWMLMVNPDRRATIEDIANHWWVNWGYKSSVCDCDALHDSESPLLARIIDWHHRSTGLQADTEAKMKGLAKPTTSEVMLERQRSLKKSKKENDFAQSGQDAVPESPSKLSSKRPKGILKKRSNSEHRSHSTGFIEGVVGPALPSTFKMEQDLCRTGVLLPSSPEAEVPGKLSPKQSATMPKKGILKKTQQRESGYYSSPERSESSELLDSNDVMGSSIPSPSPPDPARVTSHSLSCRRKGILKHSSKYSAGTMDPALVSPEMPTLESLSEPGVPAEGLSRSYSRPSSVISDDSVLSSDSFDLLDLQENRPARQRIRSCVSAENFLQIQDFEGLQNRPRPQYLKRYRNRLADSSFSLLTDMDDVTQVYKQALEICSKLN
measurement.protocol: Inhibition of recombinant ARK5
measured.quantity: IC50 (µM)
Write the answer as a number in µM, unit excluded.

Give its IC50 value. Item: COc1cc2c(c(O)c1-c1c(OC)cc(O)c3c1C(=O)C1=C(C3=O)[C@H](O)[C@@H](O)[C@@](C)(O)[C@@H]1O)C(=O)c1cc(O)c(C)cc1C2=O (single isomer, unassigned; atropisomer) [ALTERPORRIOL G/H]
6.14
